Origin of the recorded values: patent US20260217701A1

Experiment: Dog PK study #1 (Compound A IV and PO, propylene glycol formulation)
Assay type: in vivo, beagle dogs
Conditions: beagle, dog, plasma, po, 5 mg/kg, oral 5 mg/kg, 2 h; mean; read-out: Average plasma concentration
PARAMETER: concentration at 2 h (ng/mL)
Write down the numeric answer in ng/mL and omit the unit.

Look up concentration at 2 h for this compound: Cn1cc(-c2ccccc2)c(-c2cn(C)c(=O)c3[nH]c(-c4cnn(C(F)(F)F)c4)cc23)cc1=O
435

* * *

Test: Rat PK study #1 (Compound A PO, methylcellulose vs propylene glycol formulation)
Assay type: in vivo, Lewis rats
Conditions: male, Lewis, rat, plasma, po, 10 mg/kg, Lewis rats, PO 10 mg/kg, propylene glycol/Vitamin E TPGS/water formulation, individual animals
PARAMETER: AUC(0-t) (ng·h/mL)
Write down the numeric answer in ng·h/mL and omit the unit.

Look up AUC(0-t) for this molecule: Cn1cc(-c2ccccc2)c(-c2cn(C)c(=O)c3[nH]c(-c4cnn(C(F)(F)F)c4)cc23)cc1=O
4950

* * *

Assay: Dog PK study #3 (Compound A PO once daily 5 days, 5/10/20 mg/kg; PK, body weight, hematology)
Assay type: in vivo, beagle dogs
Details: male, beagle, dog, plasma, po, 20 mg/kg, Day 5, 20 mg/kg dose PO; mean
PARAMETER: Tmax

Look up Tmax for this compound: Cn1cc(-c2ccccc2)c(-c2cn(C)c(=O)c3[nH]c(-c4cnn(C(F)(F)F)c4)cc23)cc1=O
2 h

* * *

Test: Dog PK study #3 (Compound A PO once daily 5 days, 5/10/20 mg/kg; PK, body weight, hematology)
Type: in vivo, beagle dogs
Settings: male, beagle, dog, plasma, po, 10 mg/kg, Day 1, 10 mg/kg dose PO; mean; read-out: Cmax
PARAMETER: Cmax (ng/mL)
Write down the numeric answer in ng/mL and omit the unit.

Look up Cmax for this compound: Cn1cc(-c2ccccc2)c(-c2cn(C)c(=O)c3[nH]c(-c4cnn(C(F)(F)F)c4)cc23)cc1=O
1730

* * *

Item-by-item account of pIC50
Target: BRD4 BD1 (Homo sapiens, UniProt O60885)
Construct: HEK293 cells were transfected using NanoLuc-BRD4-BD1 or NanoLuc-BRD4-BD2 fusion vectors
Assay: NanoBRET bromodomain assay, NanoLuc-BRD4-BD1 in HEK293 cells
pIC50: −log10 of the molar value.

{"COMPOUND STRUCTURE STRING": "Cn1cc(-c2cccc(CN3CCNCC3)c2)c(-c2cn(C)c(=O)c3[nH]c(-c4ccc(F)cc4F)cc23)cc1=O", "OBSERVED": "< 6.00"}
{"COMPOUND STRUCTURE STRING": "Cn1cc(-c2ccccc2)c(-c2cn(C)c(=O)c3[nH]c(-c4cnn(C(F)(F)F)c4)c(F)c23)cc1=O", "OBSERVED": "< 6.00"}
{"COMPOUND STRUCTURE STRING": "Cc1cccc(C)c1Oc1cn(C)c(=O)cc1-c1cn(C)c(=O)c2[nH]c(-c3ccc(CO)cc3F)cc12", "OBSERVED": "< 6.00"}

Fill in the recorded pIC50 for this compound, with BRD4 BD1 (Homo sapiens, UniProt O60885) as test system: Cc1cc(-c2cc3c(-c4cc(=O)n(C)cc4-c4cccc(S(C)(=O)=O)c4)cn(C)c(=O)c3[nH]2)cc(C)n1
< 6.00

Fill in the recorded pIC50 for this compound, with BRD4 BD1 (Homo sapiens, UniProt O60885) as test system: COc1ccc(-c2cn(C)c(=O)cc2-c2cn(C)c(=O)c3[nH]c(-c4cc(C)nc(C)c4)cc23)cc1.Cl
6.00 to 6.30

Fill in the recorded pIC50 for this compound, with BRD4 BD1 (Homo sapiens, UniProt O60885) as test system: Cc1cccc(C)c1Oc1cn(C)c(=O)cc1-c1cn(C)c(=O)c2[nH]c(-c3cnn(CC#N)c3)cc12
6.00 to 6.30

Fill in the recorded pIC50 for this compound, with BRD4 BD1 (Homo sapiens, UniProt O60885) as test system: COc1cccc(-c2cc3c(-c4cc(=O)n(C)cc4Oc4c(C)cccc4C)cn(C)c(=O)c3[nH]2)c1F
< 6.00
